biological target: Human immunodeficiency virus type 1 protease (Human immunodeficiency virus 1, UniProt Q72874)
metric_name: IC50

# example entries with known answers
| molecular_string | IC50 |
| --- | --- |
| CSc1ccccc1C[C@@H](O)C[C@@H](Cc1ccccc1)C(=O)N[C@H]1c2ccccc2C[C@H]1O | 95 nM |
| COCOc1ccccc1C[C@@H](O)C[C@@H](Cc1ccccc1)C(=O)N[C@H]1c2ccccc2C[C@H]1O | 276 nM |
| NS(=O)(=O)c1ccccc1C[C@@H](O)C[C@@H](Cc1ccccc1)C(=O)N[C@H]1c2ccccc2C[C@H]1O | 290 nM |

input: # IC50 lookup, item O=C(N[C@H]1c2ccccc2C[C@H]1O)[C@H](Cc1ccccc1)C[C@H](O)Cc1ccccc1
output: 1200 nM

input: Also CC(C)(C)NS(=O)(=O)c1ccccc1C[C@@H](O)C[C@@H](Cc1ccccc1)C(=O)N[C@H]1c2ccccc2C[C@H]1O ?
output: 6 nM

input: Also Cc1ccc(C[C@@H](O)C[C@@H](Cc2ccccc2)C(=O)N[C@H]2c3ccccc3C[C@H]2O)c(C(=O)NC(C)(C)C)c1 ?
output: 1.7 nM

input: Also COc1ccc(C[C@@H](O)C[C@@H](Cc2ccccc2)C(=O)N[C@H]2c3ccccc3C[C@H]2O)c(OC)c1 ?
output: 105 nM

###

Consider the following pIC50 values measured on UniProt Q72874.
pIC50 here: minus log base 10 of the concentration, concentration in moles per litre.

# example entries with known answers
| molecular_string | system_tested | data_value |
| --- | --- | --- |
| O=C(N[C@H]1c2ccccc2C[C@H]1O)[C@H](Cc1ccccc1)C[C@H](O)Cc1ccccc1O | UniProt Q72874 | 5.80 |
| COc1cc(Oc2ccccc2)ccc1C[C@@H](O)C[C@@H](Cc1ccccc1)C(=O)N[C@H]1c2ccccc2C[C@H]1O | UniProt Q72874 | 7.35 |
| CS(=O)(=O)c1ccccc1C[C@@H](O)C[C@@H](Cc1ccccc1)C(=O)N[C@H]1c2ccccc2C[C@H]1O | UniProt Q72874 | 6.50 |
| CC(C)COc1ccccc1C[C@@H](O)C[C@@H](Cc1ccccc1)C(=O)N[C@H]1c2ccccc2C[C@H]1O | UniProt Q72874 | 7.01 |
| COc1ccccc1C[C@@H](O)C[C@@H](Cc1ccccc1)C(=O)N[C@H]1c2ccccc2C[C@H]1O | UniProt Q72874 | 7.10 |
| CC(C)(C)NC(=O)c1ccccc1C[C@@H](O)C[C@@H](Cc1ccccc1)C(=O)N[C@H]1c2ccccc2C[C@H]1O | UniProt Q72874 | 8.33 |

input: # pIC50 lookup, item CC(C)(C)NC(=O)[C@@H]1CNCCN1C[C@@H](O)C[C@@H](Cc1ccccc1)C(=O)N[C@H]1c2ccccc2C[C@H]1O
output: 7.42

input: Also CC(C)(C)NC(=O)[C@@H]1CCCCN1C[C@@H](O)C[C@@H](Cc1ccccc1)C(=O)N[C@H]1c2ccccc2C[C@H]1O ?
output: 7.10
